# Test system: adult Musca domestica
# protocol_description: Musca domestica test (MUSCDO)
# Type: in vivo
# particulars: 100 ppm, treated sponge, after 2 days
test_readout: kill in % (flies killed) (%)

>>> result_number("CC(=O)c1cc(C)c(NC(=O)c2cc(Cn3nnc(C(F)(F)F)n3)nn2-c2ncccc2Cl)c(C(=O)NC(C)(C)C)c1 [Compound 6]")
90
>>> result_number("CNC(=O)c1cc(C(=O)OC)cc(C)c1NC(=O)c1cc(Cn2nnc(C(F)(F)F)n2)nn1-c1ncccc1Cl")
90
>>> result_number("COC(=O)c1cc(C)c(NC(=O)c2cc(Cn3nnc(C(F)(F)F)n3)nn2-c2ncccc2Cl)c(C(=O)NC(C)(C)C)c1")
100
>>> result_number("CC(=O)c1cc(C)c(NC(=O)c2cc(Cn3nnc(C(F)(F)F)n3)nn2-c2ncccc2Cl)c(C(=O)NC(C)(C)C)c1 [Compound 1]")
100

###

# protocol_description: log P determination by HPLC on reversed-phase columns (C 18), acidic range
# Type: physicochemical
# particulars: reversed-phase C18 HPLC column, pH 2.7, Preparation Example, HPLC reversed-phase C 18; read-out: log P
test_readout: chromatographic logP

>>> result_number("COC(=O)c1cc(C)c(N)c(C(=O)NC(C)(C)C)c1 [Example No. B]")
2.48

###

# protocol_description: log P determination by HPLC on reversed-phase columns (C 18), acidic range
# Assay type: physicochemical
# particulars: pH 2.7, LOGP (HCOOH)
# Protocol: The log P values reported in the table above and in the Preparation Examples were determined in accordance with EEC Directive 79/831 Annex V.A8 by HPLC (High Performance Liquid Chromatography) on reversed-phase columns (C 18), with the following methods: […] The calibration was effected with unbranched alkan-2-ones (having 3 to 16 carbon atoms) with known log P values (log P values determined on the basis of the retention times by linear interpolation between two successive alkanones).
Threshold 3. chromatographic logP below it: yes (1). chromatographic logP at it or above: no (0).

>>> group_label("Cc1cc(C(N)=O)cc(C(=O)NC(C)(C)C)c1NC(=O)c1cc(Cn2nnc(C(F)(F)F)n2)nn1-c1ncccc1Cl")
"yes (1)"
>>> group_label("Cc1cc(C(N)=S)cc(C(=O)NC(C)(C)C)c1NC(=O)c1cc(Cn2nnc(C(F)(F)C(F)(F)F)n2)nn1-c1ncccc1Cl")
"no (0)"
>>> group_label("CNC(=O)c1cc(C(N)=S)cc(C)c1NC(=O)c1cc(Cn2nnc(C(F)(F)C(F)(F)F)n2)nn1-c1ncccc1Cl")
"yes (1)"
>>> group_label("CNC(=O)c1cc(C(N)=O)cc(C)c1NC(=O)c1cc(Cn2nnc(C(F)(F)F)n2)nn1-c1ncccc1Cl")
"yes (1)"
>>> group_label("COC(=O)c1cc(C)c(NC(=O)c2cc(Cn3nnc(C(F)(F)F)n3)nn2-c2ncccc2Cl)c(C(N)=O)c1")
"yes (1)"
>>> group_label("Cc1cc(C(N)=O)cc(C(=O)NC2CC2)c1NC(=O)c1cc(Cn2nnc(C(F)(F)F)n2)nn1-c1ncccc1Cl")
"yes (1)"
>>> group_label("CC(=O)c1cc(C)c(NC(=O)c2cc(Cn3nnc(C(F)(F)F)n3)nn2-c2ncccc2Cl)c(C(=O)NC2CC2)c1")
"yes (1)"
>>> group_label("Cc1cc(C2OCCCO2)cc(C(=O)NC(C)(C)C)c1NC(=O)c1cc(Cn2nnc(C(F)(F)F)n2)nn1-c1ncccc1Cl")
"no (0)"
>>> group_label("CNC(=O)c1cc(-n2cncn2)cc(C)c1NC(=O)c1cc(Cn2nnc(C(F)(F)F)n2)nn1-c1ncccc1Cl")
"yes (1)"
>>> group_label("CNC(=O)c1cc(-n2ccc(C(F)(F)F)n2)cc(C)c1NC(=O)c1cc(Cn2nnc(C(F)(F)F)n2)nn1-c1ncccc1Cl")
"no (0)"
>>> group_label("CNC(=O)c1cc(C(N)=S)cc(C)c1NC(=O)c1cc(Cn2nnc(C(F)(F)F)n2)nn1-c1ncccc1Cl")
"yes (1)"
>>> group_label("Cc1cc(C(N)=O)cc(C(N)=O)c1NC(=O)c1cc(Cn2nnc(C(F)(F)F)n2)nn1-c1ncccc1Cl")
"yes (1)"
>>> group_label("COC(=O)c1cc(C)c(NC(=O)c2cc(Cn3nnc(C(F)(F)F)n3)nn2-c2ncccc2Cl)c(C(=O)NC(C)(C)C)c1")
"no (0)"
>>> group_label("CNC(=O)c1cc(C(=O)OC)cc(C)c1NC(=O)c1cc(Cn2nnc(C(F)(F)F)n2)nn1-c1ncccc1Cl")
"yes (1)"
